Source of measurements: patent US11564920B2

- Target System: hERG current (Homo sapiens (Human))
- Sequence (Q12809 whole entry): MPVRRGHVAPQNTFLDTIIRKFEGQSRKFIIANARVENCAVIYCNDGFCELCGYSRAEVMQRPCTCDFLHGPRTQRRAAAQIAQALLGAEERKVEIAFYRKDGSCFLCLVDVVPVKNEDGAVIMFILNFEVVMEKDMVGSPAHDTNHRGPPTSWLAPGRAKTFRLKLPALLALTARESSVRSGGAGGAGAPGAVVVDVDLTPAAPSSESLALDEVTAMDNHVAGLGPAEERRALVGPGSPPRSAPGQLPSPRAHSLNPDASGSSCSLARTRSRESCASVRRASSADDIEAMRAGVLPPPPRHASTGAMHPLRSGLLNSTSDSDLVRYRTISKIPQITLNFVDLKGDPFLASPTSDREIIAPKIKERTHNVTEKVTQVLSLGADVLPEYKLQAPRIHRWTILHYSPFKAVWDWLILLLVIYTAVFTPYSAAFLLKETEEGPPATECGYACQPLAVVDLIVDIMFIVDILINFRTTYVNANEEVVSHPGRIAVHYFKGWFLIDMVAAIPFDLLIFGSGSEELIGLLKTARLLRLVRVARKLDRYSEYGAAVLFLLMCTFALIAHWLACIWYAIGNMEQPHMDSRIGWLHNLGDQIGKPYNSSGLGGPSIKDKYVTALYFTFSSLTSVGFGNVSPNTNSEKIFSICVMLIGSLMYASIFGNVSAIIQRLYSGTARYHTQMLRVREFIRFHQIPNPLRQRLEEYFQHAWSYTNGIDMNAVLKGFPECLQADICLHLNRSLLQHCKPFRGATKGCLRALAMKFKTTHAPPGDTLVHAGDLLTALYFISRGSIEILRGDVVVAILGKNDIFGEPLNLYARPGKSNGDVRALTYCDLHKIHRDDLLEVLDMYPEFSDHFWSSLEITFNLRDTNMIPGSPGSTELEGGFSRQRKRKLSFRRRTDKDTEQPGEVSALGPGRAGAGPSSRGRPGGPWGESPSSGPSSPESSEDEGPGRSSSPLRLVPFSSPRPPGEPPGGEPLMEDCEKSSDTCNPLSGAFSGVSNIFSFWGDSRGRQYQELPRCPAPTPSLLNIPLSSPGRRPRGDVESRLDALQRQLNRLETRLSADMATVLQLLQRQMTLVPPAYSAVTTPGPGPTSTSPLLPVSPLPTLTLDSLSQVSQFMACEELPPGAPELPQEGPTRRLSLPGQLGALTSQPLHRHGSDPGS
- Method Description: cell-based
Property: pIC50
One number for each entry, as −log10 of the molar value.

Need pIC50 of COc1ccnc(OCCCN)c1-c1cc(Nc2cnc(C#N)cn2)n[nH]1 [Example 1] , thanks.
4.94

====

- Target System: UniProt:O14757
- Sequence (O14757 whole entry): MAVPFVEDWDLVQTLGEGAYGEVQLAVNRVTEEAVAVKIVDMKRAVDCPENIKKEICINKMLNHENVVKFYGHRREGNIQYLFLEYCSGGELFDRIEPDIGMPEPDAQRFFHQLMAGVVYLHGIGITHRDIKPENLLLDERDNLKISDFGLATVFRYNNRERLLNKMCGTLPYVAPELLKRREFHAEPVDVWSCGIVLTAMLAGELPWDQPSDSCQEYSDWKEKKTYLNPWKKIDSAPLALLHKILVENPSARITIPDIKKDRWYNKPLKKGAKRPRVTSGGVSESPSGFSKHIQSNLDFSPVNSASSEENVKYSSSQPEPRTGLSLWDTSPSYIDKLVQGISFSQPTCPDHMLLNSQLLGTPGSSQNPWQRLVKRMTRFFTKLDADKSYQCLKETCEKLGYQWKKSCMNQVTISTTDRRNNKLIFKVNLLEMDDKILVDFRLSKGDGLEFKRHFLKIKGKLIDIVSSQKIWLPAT
- Method Description: CHK1 inhibitory activity test (IMAP TR-FRET)
- Format: biochemical
- Condition Info: read-out: CHK1 inhibition % at 0.1 nM
Field: inhibition at 0.0001 µM. Provide a value for each of the compounds that follow.

Here are 8 compounds together with their reported answers.
[
  {
    "Compound": "COc1ccnc(OCCCN)c1-c1cc(Nc2cnc(C#N)cn2)n[nH]1",
    "Target System": "UniProt:O14757",
    "inhibition at 0.0001 µM": "55%"
  },
  {
    "Compound": "COc1cc(Cl)nc(OCCCN)c1-c1cc(Nc2cnc(C#N)cn2)n[nH]1",
    "Target System": "UniProt:O14757",
    "inhibition at 0.0001 µM": "31%"
  },
  {
    "Compound": "COc1cncc(OCC2(C)CNC2)c1-c1cc(Nc2cnc(C#N)cn2)n[nH]1",
    "Target System": "UniProt:O14757",
    "inhibition at 0.0001 µM": "< 5%"
  },
  {
    "Compound": "COc1cncc(OC[C@]2(F)CCNC2)c1-c1cc(Nc2cnc(C#N)cn2)n[nH]1",
    "Target System": "UniProt:O14757",
    "inhibition at 0.0001 µM": "6%"
  },
  {
    "Compound": "COc1cncc(O[C@H]2C[C@H](N)[C@H]3C[C@H]32)c1-c1cc(Nc2cnc(C#N)cn2)n[nH]1",
    "Target System": "UniProt:O14757",
    "inhibition at 0.0001 µM": "< 5%"
  },
  {
    "Compound": "COc1nccc(OCC2(CN)CC2)c1-c1cc(Nc2cnc(C#N)cn2)n[nH]1",
    "Target System": "UniProt:O14757",
    "inhibition at 0.0001 µM": "< 5%"
  },
  {
    "Compound": "COc1cncc(OCC[C@@H](C)N)c1-c1cc(Nc2cnc(C#N)cn2)n[nH]1",
    "Target System": "UniProt:O14757",
    "inhibition at 0.0001 µM": "24%"
  },
  {
    "Compound": "COc1cncc(OCC[C@H](C)N)c1-c1cc(Nc2cnc(C#N)cn2)n[nH]1",
    "Target System": "UniProt:O14757",
    "inhibition at 0.0001 µM": "20%"
  }
]

Would you mind giving inhibition at 0.0001 µM for every compound in the list below?
1. COc1ccnc(OCCCN)c1-c1cc(Nc2cnc(Cl)cn2)n[nH]1
2. COc1cncc(OCC2CNC2)c1-c1cc(Nc2cnc(C#N)cn2)n[nH]1
3. COc1cncc(O[C@H](C)C2(O)CNC2)c1-c1cc(Nc2cnc(C#N)cn2)n[nH]1
4. COc1cncc(OC[C@H]2CCNC2)c1-c1cc(Nc2cnc(C#N)cn2)n[nH]1
5. COc1cncc(OC[C@@H](O)CN)c1-c1cc(Nc2cnc(C#N)cn2)n[nH]1
6. COc1cncc(OC[C@@H]2CNCCO2)c1-c1cc(Nc2cnc(C#N)cn2)n[nH]1 (stereo in doubt)
7. COc1cncc(OCCCN)c1-c1cc(Nc2cnc(C#N)cn2)n[nH]1

1: 29%; 2: < 5%; 3: < 5%; 4: 15%; 5: 30%; 6: 21%; 7: 28%

Please state, for each entry, its recorded inhibition at 0.0001 µM.
1. COc1cncc(OC[C@H]2CNCCO2)c1-c1cc(Nc2cnc(C#N)cn2)n[nH]1 (stereo in doubt)
2. COc1nccc(OCCCN)c1-c1cc(Nc2cnc(C#N)cn2)n[nH]1
3. COc1nccc(OCC2(C)CNC2)c1-c1cc(Nc2cnc(C#N)cn2)n[nH]1
4. COc1ncnc(OCC2(CN)CC2)c1-c1cc(Nc2cnc(C#N)cn2)n[nH]1
5. COc1ccnc(OCC2(CN)CC2)c1-c1cc(Nc2cnc(C#N)cn2)n[nH]1
6. COc1ncnc(OCCCN)c1-c1cc(Nc2cnc(C#N)cn2)n[nH]1
7. COc1cncc(OC[C@H](C)CN)c1-c1cc(Nc2cnc(C#N)cn2)n[nH]1

6%
25%
15%
< 5%
18%
24%
< 5%
